# Protocol details: Pharmacokinetics of Tac in rats alone or co-administered with deoxyschizandrin or Wuzhi capsule (UHPLC-MS/MS of plasma)
# Format: in vivo, SD rats
# Protocol conditions: male, SD, rat, plasma, 1 mg/kg, NG2205: 1.0 mg/kg of Tac plus 150 mg/kg deoxyschizandrin, rat plasma
Endpoint name: half-life (h)
Express the result in h but write the number alone.

Q: Given the compound `C=CC[C@@H]1/C=C(\C)C[C@H](C)C[C@H](OC)[C@H]2O[C@@](O)(C(=O)C(=O)N3CCCC[C@H]3C(=O)O[C@H](/C(C)=C/[C@@H]3CC[C@@H](O)[C@H](OC)C3)[C@H](C)[C@@H](O)CC1=O)[C@H](C)C[C@@H]2OC` , what is its reported half-life?
Ans: 5.04

###

# Protocol details: Pharmacokinetics of Tac in rats alone or co-administered with deoxyschizandrin or Wuzhi capsule (UHPLC-MS/MS of plasma)
# Type: in vivo, SD rats
# Protocol conditions: male, SD, rat, plasma, 1 mg/kg, NG2205: 1.0 mg/kg of Tac plus 150 mg/kg deoxyschizandrin, rat plasma
Endpoint name: Cmax (ng/mL)
Express the result in ng/mL but write the number alone.

Q: Given the compound `C=CC[C@@H]1/C=C(\C)C[C@H](C)C[C@H](OC)[C@H]2O[C@@](O)(C(=O)C(=O)N3CCCC[C@H]3C(=O)O[C@H](/C(C)=C/[C@@H]3CC[C@@H](O)[C@H](OC)C3)[C@H](C)[C@@H](O)CC1=O)[C@H](C)C[C@@H]2OC` , what is its reported Cmax?
Ans: 54.5

###

# Protocol details: Pharmacokinetics of deoxyschizandrin in rats after single and multiple administrations (UHPLC-MS/MS of plasma)
# Type: in vivo, SD rats
# Protocol conditions: male, SD, rat, plasma, po, 150 mg/kg, NG2202: 150 mg/kg deoxyschizandrin multiple (12 days), rat plasma, D11-D12
Endpoint name: Cmax

Q: Given the compound `COc1cc2c(c(OC)c1OC)-c1c(cc(OC)c(OC)c1OC)C[C@H](C)[C@H](C)C2` , what is its reported Cmax?
Ans: 229 ng/mL

###

# Protocol details: Pharmacokinetics of Tac in rats alone or co-administered with deoxyschizandrin or Wuzhi capsule (UHPLC-MS/MS of plasma)
# Assay type: in vivo, SD rats
# Protocol conditions: male, SD, rat, plasma, 1 mg/kg, NG2204: 1.0 mg/kg of Tac plus 75 mg/kg deoxyschizandrin, rat plasma
Endpoint name: AUC(0-inf) (µg·h/mL)
Express the result in µg·h/mL but write the number alone.

Q: Given the compound C=CC[C@@H]1/C=C(\C)C[C@H](C)C[C@H](OC)[C@H]2O[C@@](O)(C(=O)C(=O)N3CCCC[C@H]3C(=O)O[C@H](/C(C)=C/[C@@H]3CC[C@@H](O)[C@H](OC)C3)[C@H](C)[C@@H](O)CC1=O)[C@H](C)C[C@@H]2OC [Tac, Tacrolimus] , what is its reported AUC(0-inf)?
Ans: 0.351

###

# Protocol details: Pharmacokinetics of Tac in rats alone or co-administered with deoxyschizandrin or Wuzhi capsule (UHPLC-MS/MS of plasma)
# Type: in vivo, SD rats
# Protocol conditions: male, SD, rat, plasma, 1 mg/kg, NG2207: 1.0 mg/kg of Tac plus Wuzhi capsule (equivalent to 150 mg/kg deoxyschizandrin), rat plasma
Endpoint name: MRT (h)
Express the result in h but write the number alone.

Q: Given the molecule `C=CC[C@@H]1/C=C(\C)C[C@H](C)C[C@H](OC)[C@H]2O[C@@](O)(C(=O)C(=O)N3CCCC[C@H]3C(=O)O[C@H](/C(C)=C/[C@@H]3CC[C@@H](O)[C@H](OC)C3)[C@H](C)[C@@H](O)CC1=O)[C@H](C)C[C@@H]2OC` , what is its reported MRT?
Ans: 7.23

###

# Protocol details: Pharmacokinetics of Tac in rats alone or co-administered with deoxyschizandrin or Wuzhi capsule (UHPLC-MS/MS of plasma)
# Type: in vivo, SD rats
# Protocol conditions: male, SD, rat, plasma, 1 mg/kg, NG2204: 1.0 mg/kg of Tac plus 75 mg/kg deoxyschizandrin, rat plasma
Endpoint name: MRT (h)
Express the result in h but write the number alone.

Q: Given the molecule C=CC[C@@H]1/C=C(\C)C[C@H](C)C[C@H](OC)[C@H]2O[C@@](O)(C(=O)C(=O)N3CCCC[C@H]3C(=O)O[C@H](/C(C)=C/[C@@H]3CC[C@@H](O)[C@H](OC)C3)[C@H](C)[C@@H](O)CC1=O)[C@H](C)C[C@@H]2OC [Tac, Tacrolimus] , what is its reported MRT?
Ans: 6.69

###

# Protocol details: Pharmacokinetics of Tac in rats alone or co-administered with deoxyschizandrin or Wuzhi capsule (UHPLC-MS/MS of plasma)
# Type: in vivo, SD rats
# Protocol conditions: male, SD, rat, plasma, 1 mg/kg, NG2207: 1.0 mg/kg of Tac plus Wuzhi capsule (equivalent to 150 mg/kg deoxyschizandrin), rat plasma
Endpoint name: Tmax (h)
Express the result in h but write the number alone.

Q: Given the compound C=CC[C@@H]1/C=C(\C)C[C@H](C)C[C@H](OC)[C@H]2O[C@@](O)(C(=O)C(=O)N3CCCC[C@H]3C(=O)O[C@H](/C(C)=C/[C@@H]3CC[C@@H](O)[C@H](OC)C3)[C@H](C)[C@@H](O)CC1=O)[C@H](C)C[C@@H]2OC [Tac, Tacrolimus] , what is its reported Tmax?
Ans: 1.5

###

# Protocol details: Pharmacokinetics of Tac in rats alone or co-administered with deoxyschizandrin or Wuzhi capsule (UHPLC-MS/MS of plasma)
# Format: in vivo, SD rats
# Protocol conditions: male, SD, rat, plasma, 1 mg/kg; Tac 1 mg/kg alone (NG2203), rat plasma
Endpoint name: AUC(0-t) (ng·h/mL)
Express the result in ng·h/mL but write the number alone.

Q: Given the molecule `C=CC[C@@H]1/C=C(\C)C[C@H](C)C[C@H](OC)[C@H]2O[C@@](O)(C(=O)C(=O)N3CCCC[C@H]3C(=O)O[C@H](/C(C)=C/[C@@H]3CC[C@@H](O)[C@H](OC)C3)[C@H](C)[C@@H](O)CC1=O)[C@H](C)C[C@@H]2OC` , what is its reported AUC(0-t)?
Ans: 95.1

###

# Protocol details: Pharmacokinetics of Tac in rats alone or co-administered with deoxyschizandrin or Wuzhi capsule (UHPLC-MS/MS of plasma)
# Format: in vivo, SD rats
# Protocol conditions: male, SD, rat, plasma, 1 mg/kg; Tac 1 mg/kg alone (NG2203), rat plasma
Endpoint name: AUC(0-inf) (ng·h/mL)
Express the result in ng·h/mL but write the number alone.

Q: Given the compound C=CC[C@@H]1/C=C(\C)C[C@H](C)C[C@H](OC)[C@H]2O[C@@](O)(C(=O)C(=O)N3CCCC[C@H]3C(=O)O[C@H](/C(C)=C/[C@@H]3CC[C@@H](O)[C@H](OC)C3)[C@H](C)[C@@H](O)CC1=O)[C@H](C)C[C@@H]2OC [Tac, Tacrolimus] , what is its reported AUC(0-inf)?
Ans: 105

###

# Protocol details: Pharmacokinetics of Tac in rats alone or co-administered with deoxyschizandrin or Wuzhi capsule (UHPLC-MS/MS of plasma)
# Type: in vivo, SD rats
# Protocol conditions: male, SD, rat, plasma; Tac co-administrated with deoxyschizandrin (NG2205), rat plasma
Endpoint name: AUC(0-t) (ng·h/mL)
Express the result in ng·h/mL but write the number alone.

Q: Given the compound C=CC[C@@H]1/C=C(\C)C[C@H](C)C[C@H](OC)[C@H]2O[C@@](O)(C(=O)C(=O)N3CCCC[C@H]3C(=O)O[C@H](/C(C)=C/[C@@H]3CC[C@@H](O)[C@H](OC)C3)[C@H](C)[C@@H](O)CC1=O)[C@H](C)C[C@@H]2OC [Tac, Tacrolimus] , what is its reported AUC(0-t)?
Ans: 315

###

# Protocol details: Pharmacokinetics of Tac in rats alone or co-administered with deoxyschizandrin or Wuzhi capsule (UHPLC-MS/MS of plasma)
# Type: in vivo, SD rats
# Protocol conditions: male, SD, rat, plasma, 1 mg/kg, NG2206: 1.0 mg/kg of Tac plus 300 mg/kg deoxyschizandrin, rat plasma
Endpoint name: Tmax (min)
Express the result in min but write the number alone.

Q: Given the compound C=CC[C@@H]1/C=C(\C)C[C@H](C)C[C@H](OC)[C@H]2O[C@@](O)(C(=O)C(=O)N3CCCC[C@H]3C(=O)O[C@H](/C(C)=C/[C@@H]3CC[C@@H](O)[C@H](OC)C3)[C@H](C)[C@@H](O)CC1=O)[C@H](C)C[C@@H]2OC [Tac, Tacrolimus] , what is its reported Tmax?
Ans: 45

###

# Protocol details: Pharmacokinetics of Tac in rats alone or co-administered with deoxyschizandrin or Wuzhi capsule (UHPLC-MS/MS of plasma)
# Assay type: in vivo, SD rats
# Protocol conditions: male, SD, rat, plasma, 1 mg/kg, NG2203: 1.0 mg/kg of Tac alone, rat plasma
Endpoint name: AUC(0-inf)

Q: Given the compound `C=CC[C@@H]1/C=C(\C)C[C@H](C)C[C@H](OC)[C@H]2O[C@@](O)(C(=O)C(=O)N3CCCC[C@H]3C(=O)O[C@H](/C(C)=C/[C@@H]3CC[C@@H](O)[C@H](OC)C3)[C@H](C)[C@@H](O)CC1=O)[C@H](C)C[C@@H]2OC` , what is its reported AUC(0-inf)?
Ans: 105 ng·h/mL
